Numbers sourced from PubChem BioAssay AID1199.

Exercise: for every item that follows, state its recorded Potency.
# Test system: mouse carcinogenicity bioassay, TD50 from CPDB
# assay.protocol: DSSTox (CPDBAS) Carcinogenic Potency Database Summary Mouse Bioassay Results
# condition.details: TD50_Mouse_Note: TD50 is harmonic mean of more than one positive test; TargetSites_Mouse_Female: liver

compound	Potency
ClC1(Cl)C2(Cl)C3(Cl)C4(Cl)C(Cl)(Cl)C5(Cl)C3(Cl)C1(Cl)C5(Cl)C24Cl (stereo not given)	0.00266 mmol/kg/day
CN1CCCC1=O	20.7 mmol/kg/day
C=CCc1ccc(OC)c(OC)c1	0.108 mmol/kg/day
ClC1C(Cl)C(Cl)C(Cl)C(Cl)C1Cl (stereo not given)	0.0956 mmol/kg/day
ClC(Cl)=C(Cl)Cl	0.953 mmol/kg/day

Quick one: give me Potency for each item below, same order please.
1. Nc1cc(S(=O)(=O)[O-])cc2cc(S(=O)(=O)[O-])c(N=Nc3ccc(-c4ccc(N=Nc5c(S(=O)(=O)[O-])cc6cc(S(=O)(=O)[O-])cc(N)c6c5O)c(O)c4)cc3O)c(O)c12.[Cu].[Cu].[Na+].[Na+].[Na+].[Na+]
2. Clc1ccc(Cl)cc1

output:
["0.788 mmol/kg/day", "2.2 mmol/kg/day"]
